- Tested Target: human GPR119 (Homo sapiens)
- Sequence (Q8TDV5 whole entry): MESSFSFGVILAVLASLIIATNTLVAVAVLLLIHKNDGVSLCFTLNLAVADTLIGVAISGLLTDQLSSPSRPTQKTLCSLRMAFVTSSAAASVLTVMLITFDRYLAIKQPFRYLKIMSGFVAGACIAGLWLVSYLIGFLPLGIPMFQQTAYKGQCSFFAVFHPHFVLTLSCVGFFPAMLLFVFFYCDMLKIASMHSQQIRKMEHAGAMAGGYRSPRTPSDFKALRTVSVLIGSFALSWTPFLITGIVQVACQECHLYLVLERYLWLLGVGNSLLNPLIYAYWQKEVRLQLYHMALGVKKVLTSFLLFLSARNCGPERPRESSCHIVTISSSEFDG
- Assay Info: Cyclic AMP assay (HTRF) in stable Flp-In-CHO-hGPR119 cell line
- Condition Context: Flp-In-CHO-hGPR119 cells, intracellular cAMP, 30 minutes at 37° C., 1 mM IBMX, read-out: CHO-GPR119-HTRF (3158) EC50
Test Readout: EC50 (nM)

(a) CC(C)OC(=O)N(Cc1cccc(O[C@H]2CCN(c3ccc(S(C)(=O)=O)cc3)C2)c1)C(C)C [Example 16]
(b) CS(=O)(=O)c1ccc(N2CC[C@H](Oc3cccc(CNCc4ccccc4)c3)C2)c(F)c1 [Example 9]
(c) CCN(Cc1cccc(O[C@H]2CCN(c3ccc(S(C)(=O)=O)cc3)C2)c1)C(=O)OC(C)C [Example 14]
(d) CC(C)OC(=O)N1CCc2cc(O[C@H]3CCN(c4ccc(S(C)(=O)=O)cc4F)C3)ccc2C1 [Example 2]
(e) CNCc1cccc(O[C@H]2CCN(c3ccc(S(C)(=O)=O)cc3)C2)c1 [Example 6]
Lab note: rank above entries, EC50 ascending. # the answer lists labels in the order requested
d, c, a, e, b

(A) CC(C)OC(=O)N1CCc2cc(CO[C@H]3CCN(c4ccc(S(C)(=O)=O)cc4)C3)ccc2C1 [Example 3]
(B) CC(C)N(Cc1ccccc1)Cc1cccc(O[C@H]2CCN(c3ccc(S(C)(=O)=O)cc3F)C2)c1 [Example 12]
(C) CC(C)OC(=O)N1CCc2ccc(CO[C@H]3CCN(c4ccc(S(C)(=O)=O)cc4)C3)cc2C1 [Example 4]
Provide the items ranked by increasing EC50. # the answer lists labels in the order requested
B, A, C
(B: 33 nM, A: 202 nM, C: 424 nM)

(P) CC(C)OC(=O)N(C)Cc1cccc(O[C@H]2CCN(c3ccc(S(C)(=O)=O)cc3)C2)c1 [Example 17]
(Q) CC(C)N(Cc1ccccc1)Cc1cccc(O[C@H]2CCN(c3ccc(S(C)(=O)=O)cc3)C2)c1 [Example 8]
Between these two entries, P and Q , state which has the higher EC50. Answer by quoting the chosen item's label.
Q
(Q: 586 nM, P: 263 nM)
